Cited source: patent US9296810

biological target: T1, hen egg white lysozyme (hen, UniProt P00698 19-147, biotinylated (HEL-b); sites not stated); assay: yeast display selection
T1 construct: also called lyzozyme; HEL-b (biotinylated)
T1 sequence (P00698 19-147 limits assumed): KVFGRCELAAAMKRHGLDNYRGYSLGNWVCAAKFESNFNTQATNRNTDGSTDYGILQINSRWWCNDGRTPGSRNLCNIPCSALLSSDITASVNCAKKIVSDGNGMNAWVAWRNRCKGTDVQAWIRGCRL
readout_kind: binding result

Measured binding result of SEQ ID NO 74 (designed binder) VSDVPRDLEVVAATPTSLLISWDAPAVTVRYYRITYGEYEPYGSQYQEFTVPGSKSTATISERQHAVDYTITVYAVTGRGESPASSKPISINYRRYE : binds

Measured binding result of SEQ ID NO 49 (designed binder) VSDVPRDLEVVAATPTSLLISWDAPAVTVRYYRITYGERGSEAERQEFTVPGSKSTATISQAYYGVDYTITVYAVTGRGESPASSKPISINYSYAS : binds
